Sourced from patent US11076595B2

# Test system: Echinochloa crus-galli
# assay comment: Test Example 11: herbicidal effect test by soil treatment in paddy field
# Format: in vivo
# measurement parameters: 120 g/10a active ingredient, 14 days after treatment
Below: a set of entries, each annotated with reported Weed suppression rate (%) Echinochloa crus-galli.
Record the value in %, omitting the unit from your answer.

The examples below pair each entry with its known result.
compound: CC(C)N(C(=O)n1cnn(S(=O)(=O)c2ccccc2F)c1=O)c1cccc(F)c1F [Compound 11-401]
target or test system: Echinochloa crus-galli
result number: 100
//
compound: CC(C)N(C(=O)n1cnn(S(=O)(=O)c2ccc(C(C)(C)C)cc2)c1=O)c1ccccc1F [Compound 11-672]
target or test system: Echinochloa crus-galli
result number: 90
//
compound: CC(C)N(C(=O)n1cnn(S(=O)(=O)c2cccs2)c1=O)c1ccc(F)c(F)c1F [Compound 11-1025]
target or test system: Echinochloa crus-galli
result number: 100
//
compound: CC(C)N(C(=O)n1cnn(S(=O)(=O)N(C)C)c1=O)c1ccc(C(F)(F)F)cc1Cl [Compound 11-1084]
target or test system: Echinochloa crus-galli
result number: 90
//
compound: COc1ccc(S(=O)(=O)n2ncn(C(=O)N(c3c(F)cccc3F)C(C)C)c2=O)cc1 [Compound 11-1151]
target or test system: Echinochloa crus-galli
result number: 100
//
compound: CCN(CC)C(=O)n1cnn(S(=O)(=O)c2ccc(C(C)(C)C)cc2)c1=O [Compound 11-670]
target or test system: Echinochloa crus-galli
result number: 50

Exercise: Quick one: Weed suppression rate (%) Echinochloa crus-galli for Cc1ccc(S(=O)(=O)n2ncn(C(=O)N(c3cccc(F)c3F)C(C)C)c2=O)cc1 [Compound 11-636] ?
Key: 100

Exercise: Quick one: Weed suppression rate (%) Echinochloa crus-galli for CC(C)N(C(=O)n1cnn(S(=O)(=O)c2cccs2)c1=O)c1ccc(F)cc1F [Compound 11-1022] ?
Key: 100

* * *

# Test system: Lindernia pyxidaria
# assay comment: Test Example 12: herbicidal effect test by treatment during growing period in paddy field
# Type: in vivo
# measurement parameters: 120 g/10a; treatment seven days after sowing in flooded paddy pot; assessed 14 days after treatment
assay readout: Weed suppression rate (%) Lindemia pyxidaria
Record the value in %, omitting the unit from your answer.

The examples below pair each entry with its known result.
smiles: CC(C)N(C(=O)n1cnn(S(=O)(=O)C2CC2)c1=O)c1ncc(Cl)cc1Cl
target or test system: Lindernia pyxidaria
unit name: %
result number: 90
--
smiles: CCS(=O)(=O)n1ncn(C(=O)N(c2cccc(F)c2F)C(C)C)c1=O
target or test system: Lindernia pyxidaria
unit name: %
result number: 90
--
smiles: C=CS(=O)(=O)n1ncn(C(=O)N(c2ccc(F)cc2F)C(C)C)c1=O
target or test system: Lindernia pyxidaria
unit name: %
result number: 40

Now for another entry.
Exercise: Quick one: Weed suppression rate (%) Lindemia pyxidaria for Cc1cc(C)c(S(=O)(=O)n2ncn(C(=O)N(c3ccc(Cl)cn3)C(C)C)c2=O)c(C)c1 ?
Key: 70

* * *

Below: a set of entries, each annotated with reported Weed suppression rate (%) Echinochloa crus-galli.
# System: Echinochloa crus-galli
# assay comment: Test Example 12: herbicidal effect test by treatment during growing period in paddy field
# Format: in vivo
# measurement parameters: 120 g/10a; treatment seven days after sowing in flooded paddy pot; assessed 14 days after treatment
Record the value in %, omitting the unit from your answer.

Exercise: Quick one: Weed suppression rate (%) Echinochloa crus-galli for CC(C)N(C(=O)n1cnn(S(=O)(=O)c2cccc(Cl)c2)c1=O)c1ccc(F)c(F)c1F [Compound 11-553] ?
Key: 100
